Measured values drawn from PubChem BioAssay for this set.

- protocol-summary: basal MM1S mitochondrial membrane potential changes, profiling panel, cell-based, JC-1 fluorescence, 24 h, 100 nL compound (AID 1170); note: test concentration not given here
- run-parameters: higher = more signal
measured-attribute: z-score

Q) Looking for the measured z-score of C=C(COC)/C(=C/C[C@H](OC(=O)c1ccncc1)c1ccccc1OCCO)c1cnc2ccccc2c1 , can you help?
A) -0.0279

Q) Looking for the measured z-score of COC(=O)c1cn(C[C@@H](Cc2ccccc2)NC(=O)N[C@H](CO)CCc2oc(C(C)=O)c(C(=O)OC)c2C(=O)OC)nn1 , can you help?
A) 0.962

Q) Looking for the measured z-score of C=C(/C(=C/C[C@H](OC(=O)c1ccncc1)c1ccc(CO)o1)c1cc(C(=O)OC)ccc1OC)C(C)C , can you help?
A) -0.251

Q) Looking for the measured z-score of COCCOC(=O)N1C(=O)[C@@]2(c3cc(C#Cc4ccc(OC)cc4)ccc31)[C@H](c1ccc(O)cc1)N1[C@H](c3ccccc3)[C@H](c3ccccc3)OC(=O)[C@H]1[C@@H]2C(=O)N1CCCCCCC1 , can you help?
A) -0.414

Q) Looking for the measured z-score of O=C1O[C@H](c2ccccc2)[C@H](c2ccccc2)N2[C@H]1[C@@H](C(=O)Nc1nc3ccccc3s1)[C@]1(C(=O)Nc3ccc(C#CCCO)cc31)[C@H]2c1ccc(O)cc1 , can you help?
A) -1.48

Q) Looking for the measured z-score of COc1cc2c(cc1O)C(C)N(Cc1ccc([N+](=O)[O-])o1)CC2 (stereo not drawn) , can you help?
A) -0.208

Q) Looking for the measured z-score of CCOC(=O)C1CCCCN1 (stereo not drawn) , can you help?
A) 0.319

---
Q) Looking for the measured z-score of OCC1CC(c2ccccc2)=NO1 (stereo not drawn) , can you help?
A) -0.201

====

- System: Human papillomavirus type 1a protein E7 (residues 44-93)
- protocol-summary: HPV1a E7 fragment binders on microarrays, primary screen, biochemical, small-molecule microarray, residues 44-93, 635 nm fluorescence (AID 1108);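 note: E7 fragment applied at 1 µg/mL in TBST for 1 h at 4 C; score combines spot fluorescence with its signal to noise ratio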
- run-parameters: small-molecule microarray binding, fluorescence 635 nm; higher = more signal
measured-attribute: composite z-score
Answer as a number with no unit attached.

Q) Looking for the measured composite z-score of O=C(NCCCCCNC(=O)/C(Cc1ccccc1)=N/O)OCc1ccccc1 , can you help?
A) -0.0938

Q) Looking for the measured composite z-score of O=C1O[C@H](c2ccccc2)[C@H](c2ccccc2)N2[C@H]1[C@@H](C(=O)O)[C@]1(C(=O)Nc3ccc(C#CC4=CCCCC4)cc31)[C@H]2c1ccc(O)cc1 , can you help?
A) 1.33

---
Q) Looking for the measured composite z-score of CO[C@]12C=C(Br)[C@@H](C[C@@H]1c1cccc(C)c1)[C@@]1(CO1)C2=O , can you help?
A) 0.194

Q) Looking for the measured composite z-score of CN1C(=O)C2C=CC(C(O)C#Cc3ccccc3)N(Nc3ccccc3)C2C1=O (stereo not given) , can you help?
A) 1.45

Q) Looking for the measured composite z-score of O=C1O[C@H](c2ccccc2)[C@H](c2ccccc2)N2[C@H]1[C@@H](C(=O)Nc1nc3ccccc3s1)[C@]1(C(=O)Nc3ccccc31)[C@H]2c1ccc(OCCO)cc1 , can you help?
A) 1.36

Q) Looking for the measured composite z-score of COc1cc2c(cc1OC)CN(C(=O)[C@@H]1[C@H]3C(=O)O[C@H](c4ccccc4)[C@H](c4ccccc4)N3[C@H](c3ccc(OCCO)cc3)[C@@]13C(=O)Nc1ccc(C#CC4(O)CCCCCC4)cc13)CC2 , can you help?
A) 1.34

Q) Looking for the measured composite z-score of COc1ccc([Si](C)(C)[C@@H]2[C@@H](CC(=O)N(CCO)Cc3ccccc3)O[C@]3(C(=O)N(c4ccccc4)c4ccccc43)[C@H]2C)cc1 , can you help?
A) 1.33

Q) Looking for the measured composite z-score of COCCCNC(=O)[C@@]1(Cc2ccccc2CN=[N+]=[N-])N=C(c2ccc(OCCCO)cc2)O[C@H]1c1ccccc1 , can you help?
A) 1.47
